Target: T1, recombinant LILRA3 (human, UniProt Q8N6C8 24-439)
T1 construct: whole entry named; also called LILRA3 ECD; LILA3
T1 sequence (Q8N6C8 24-439 limits assumed): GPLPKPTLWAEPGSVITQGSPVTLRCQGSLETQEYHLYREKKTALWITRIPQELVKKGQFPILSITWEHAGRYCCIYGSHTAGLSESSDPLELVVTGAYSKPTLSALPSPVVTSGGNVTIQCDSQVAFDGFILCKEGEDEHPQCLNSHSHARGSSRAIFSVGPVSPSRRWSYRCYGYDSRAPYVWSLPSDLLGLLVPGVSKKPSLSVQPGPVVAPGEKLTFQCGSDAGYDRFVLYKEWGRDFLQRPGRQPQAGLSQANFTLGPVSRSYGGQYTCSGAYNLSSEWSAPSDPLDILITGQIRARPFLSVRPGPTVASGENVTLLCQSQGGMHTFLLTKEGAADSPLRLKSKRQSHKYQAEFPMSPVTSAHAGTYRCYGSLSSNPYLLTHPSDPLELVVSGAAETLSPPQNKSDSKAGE
Test: BLI, IgG on AHC sensor, ECD in solution
quantity name: Kd (nM)
Respond numerically; units are nM and should not be typed.

Example entries and their recorded answers appear below.
Consider A-014 (antibody, V domains shown, tested as IgG) VH: QVQLVQSGAEVKKPGSSVKVSCKASGGTFSSYAINWVRQAPGQGLEWMGGIIPIFHTSNYAQKFQGRVTITADESTSTAYMELSSLRSEDTAVYYCAKDLGTYSSGWPYYYGMDVWGQGTTVTVSS VL: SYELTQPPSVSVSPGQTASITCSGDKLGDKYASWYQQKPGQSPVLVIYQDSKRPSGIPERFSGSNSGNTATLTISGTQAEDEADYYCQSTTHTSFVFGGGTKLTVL . Its measured Kd is 58.8

Consider A-016 (antibody, V domains shown, tested as IgG) VH: QVQLVQSGAEVKKPGSSVKVSCKASGGTFSSYAFNWVRQAPGQGLEWMGSIIPIFKTANYAQKFQGRVTITADESTSTAYMELSSLRSEDTAVYYCAKDLGTYSSGWPYYYGMDVWGQGTTVTVSS VL: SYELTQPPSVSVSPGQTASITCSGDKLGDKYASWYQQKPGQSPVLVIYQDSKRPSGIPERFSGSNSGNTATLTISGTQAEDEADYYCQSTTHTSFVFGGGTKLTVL . Its measured Kd is 116

Consider A-001 (antibody, V domains shown, tested as IgG; also called parental antibody A-001) VH: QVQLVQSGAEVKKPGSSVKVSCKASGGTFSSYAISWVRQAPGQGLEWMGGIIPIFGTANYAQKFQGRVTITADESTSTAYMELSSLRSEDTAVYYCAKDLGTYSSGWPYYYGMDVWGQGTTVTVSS VL: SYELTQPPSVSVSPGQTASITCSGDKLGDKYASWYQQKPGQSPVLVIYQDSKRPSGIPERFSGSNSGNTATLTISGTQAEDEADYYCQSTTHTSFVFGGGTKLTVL . Its measured Kd is 576

Then this binder:
Consider A-018 (antibody, V domains shown, tested as IgG) VH: QVQLVQSGAEVKKPGSSVKVSCKASGGTFSTSAISWVRQAPGQGLEWMGGIIPIFYTANYAQKFQGRVTITADESTSTAYMELSSLRSEDTAVYYCAKDLGTYSSGWPYYYGMDVWGQGTTVTVSS VL: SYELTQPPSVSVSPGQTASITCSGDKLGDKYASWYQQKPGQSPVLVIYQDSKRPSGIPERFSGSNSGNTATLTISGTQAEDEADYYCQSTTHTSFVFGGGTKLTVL . Its measured Kd is 212

Where these numbers come from: patent US20260209345A1
